molecular target: soluble guanylate cyclase (sGC) (Rattus norvegicus (Rat), UniProt P20595); assay: Stimulation of sGC enzyme activity (PPi detection, luciferase); assay type: biochemical; conditions: sGC enzyme in vitro
Sequence (P20595 whole entry): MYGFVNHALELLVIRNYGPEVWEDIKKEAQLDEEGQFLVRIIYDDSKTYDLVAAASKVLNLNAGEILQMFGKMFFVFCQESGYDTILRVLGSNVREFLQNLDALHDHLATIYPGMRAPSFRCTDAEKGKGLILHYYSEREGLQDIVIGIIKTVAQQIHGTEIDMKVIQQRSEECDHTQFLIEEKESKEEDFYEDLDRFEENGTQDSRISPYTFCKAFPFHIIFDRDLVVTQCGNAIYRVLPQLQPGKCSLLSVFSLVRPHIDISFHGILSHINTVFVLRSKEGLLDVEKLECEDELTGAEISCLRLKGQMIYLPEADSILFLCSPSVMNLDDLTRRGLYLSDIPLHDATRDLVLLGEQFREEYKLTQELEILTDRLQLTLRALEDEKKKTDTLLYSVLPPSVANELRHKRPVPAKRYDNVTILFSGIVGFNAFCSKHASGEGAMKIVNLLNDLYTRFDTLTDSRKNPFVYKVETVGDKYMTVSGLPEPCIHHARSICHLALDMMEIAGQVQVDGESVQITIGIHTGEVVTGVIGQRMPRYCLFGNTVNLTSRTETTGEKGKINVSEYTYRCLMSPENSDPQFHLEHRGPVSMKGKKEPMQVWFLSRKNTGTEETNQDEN
Sequence (P19686 whole entry partner): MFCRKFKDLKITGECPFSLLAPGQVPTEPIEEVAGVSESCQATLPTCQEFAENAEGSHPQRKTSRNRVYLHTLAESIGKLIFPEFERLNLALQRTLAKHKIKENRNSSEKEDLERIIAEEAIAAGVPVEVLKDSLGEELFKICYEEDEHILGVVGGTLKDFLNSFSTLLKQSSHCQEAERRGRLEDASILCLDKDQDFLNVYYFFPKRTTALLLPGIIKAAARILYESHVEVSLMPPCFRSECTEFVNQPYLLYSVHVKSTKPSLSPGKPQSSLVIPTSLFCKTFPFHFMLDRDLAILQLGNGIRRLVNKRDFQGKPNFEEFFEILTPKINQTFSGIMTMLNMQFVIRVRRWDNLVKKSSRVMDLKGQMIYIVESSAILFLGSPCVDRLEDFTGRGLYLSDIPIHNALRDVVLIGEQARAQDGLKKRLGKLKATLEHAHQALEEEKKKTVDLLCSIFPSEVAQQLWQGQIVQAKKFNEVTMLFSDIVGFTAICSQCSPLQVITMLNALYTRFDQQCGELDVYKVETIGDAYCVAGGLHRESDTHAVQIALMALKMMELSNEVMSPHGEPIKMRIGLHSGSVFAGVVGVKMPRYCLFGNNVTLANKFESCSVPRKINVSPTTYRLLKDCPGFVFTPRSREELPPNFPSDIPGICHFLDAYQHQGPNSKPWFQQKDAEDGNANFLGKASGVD
I'd appreciate it if you could supply MEC (minimum effective concentration), activating action at the sGC enzyme values for the items below.
Lab book: enter the figure in nM, no units written.

Enquiry: Please report the measured MEC (minimum effective concentration), activating action at the sGC enzyme for CC(C)C(CC(=O)O)c1ccc(Cl)c(NC(=O)C(c2ccc(CC(F)(F)F)cc2)C(C)C(F)(F)F)c1 (stereo not shown)
Return: 1.1

Enquiry: Tell me MEC (minimum effective concentration), activating action at the sGC enzyme reported for C[C@H]([C@H](C(=O)Nc1cc(C(C)(CC(=O)O)C2CCC2)ccc1Cl)c1ccc(Cl)cc1)C(F)(F)F (single isomer, unassigned) [Example 5]
Return: 0.3

Enquiry: Check the records and state MEC (minimum effective concentration), activating action at the sGC enzyme for CC(C)C(C)(CC(=O)O)c1ccc(Cl)c(NC(=O)[C@H](c2ccc(Cl)cc2)[C@@H](C)C(F)(F)F)c1 (single isomer, unassigned) [Example 4]
Return: 2.4

Enquiry: Indicate its recorded MEC (minimum effective concentration), activating action at the sGC enzyme; the compound in question is C[C@H]([C@H](C(=O)Nc1cc(C(CC(=O)O)C2CCC2)ccc1Cl)c1ccc(Cl)cc1)C(F)(F)F (single isomer, unassigned; (+))
Return: 0.4
